This collection of values is drawn from paper PMC11121381.

target: epidermal growth factor receptor (EGFR) (Homo sapiens, UniProt P00533); construct: endogenous EGFR in S1 human colon cancer cells; assay: inhibition of EGF-induced EGFR phosphorylation (Tyr1068) in cells, immunoblot
Sequence (P00533 25-1210): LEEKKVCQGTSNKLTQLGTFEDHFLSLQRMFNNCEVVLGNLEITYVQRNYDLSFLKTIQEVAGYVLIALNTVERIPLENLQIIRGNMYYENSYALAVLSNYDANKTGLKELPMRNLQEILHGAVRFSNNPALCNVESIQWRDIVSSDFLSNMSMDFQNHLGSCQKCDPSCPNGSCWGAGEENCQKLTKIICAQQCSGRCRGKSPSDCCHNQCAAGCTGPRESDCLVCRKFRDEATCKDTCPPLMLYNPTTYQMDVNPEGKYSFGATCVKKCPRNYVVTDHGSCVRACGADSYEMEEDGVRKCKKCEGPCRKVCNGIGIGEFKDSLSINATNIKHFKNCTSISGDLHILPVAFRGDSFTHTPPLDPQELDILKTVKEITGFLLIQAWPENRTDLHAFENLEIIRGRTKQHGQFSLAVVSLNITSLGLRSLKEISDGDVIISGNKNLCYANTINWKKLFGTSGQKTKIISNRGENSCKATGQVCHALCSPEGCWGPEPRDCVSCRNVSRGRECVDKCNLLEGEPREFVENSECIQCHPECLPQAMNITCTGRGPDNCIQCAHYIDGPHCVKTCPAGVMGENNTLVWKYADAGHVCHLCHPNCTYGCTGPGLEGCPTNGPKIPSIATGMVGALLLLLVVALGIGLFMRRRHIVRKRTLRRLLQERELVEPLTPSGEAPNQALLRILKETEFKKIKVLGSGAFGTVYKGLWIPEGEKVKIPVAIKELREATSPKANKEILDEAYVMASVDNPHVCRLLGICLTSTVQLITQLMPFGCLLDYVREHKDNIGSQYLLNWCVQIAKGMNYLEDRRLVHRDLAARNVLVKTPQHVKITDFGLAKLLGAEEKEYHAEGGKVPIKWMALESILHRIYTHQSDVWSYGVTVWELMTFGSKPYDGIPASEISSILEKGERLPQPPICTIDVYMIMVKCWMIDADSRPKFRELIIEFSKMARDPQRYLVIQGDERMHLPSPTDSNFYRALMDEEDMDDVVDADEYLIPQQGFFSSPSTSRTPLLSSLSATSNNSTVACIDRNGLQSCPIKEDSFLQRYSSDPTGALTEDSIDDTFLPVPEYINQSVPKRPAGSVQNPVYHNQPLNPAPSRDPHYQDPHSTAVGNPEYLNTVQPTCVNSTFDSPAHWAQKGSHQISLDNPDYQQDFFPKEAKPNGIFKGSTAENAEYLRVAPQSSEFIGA
quantityKind: IC50 (µM)
I only need the number, in µM, no unit after it.

The measured IC50 associated with CS(=O)(=O)Nc1cc(-c2ccc3ncnc(Nc4ccc(F)c(Cl)c4)c3c2)cnc1Cl reads 6.64
